# Tested on: XIP peptide (Xip251-270) binding
# Protocol details: small-molecule binders of XIP peptide, primary screen, biochemical, small-molecule microarray, fluorescence 635/667 nm, 0.1 µg/mL protein (AID 1182)
# Test context: fluorescent protein binding, 635 nm, higher = more signal, called active from +8 up or from −8 down
This section presents compounds with their documented composite z-score values.
Enter the number alone.

Example compounds with recorded composite z-score:
CC(C)[Si](C#Cc1ccc(Oc2ccccc2)cc1)(O[Si](C#Cc1ccc(Oc2ccccc2)cc1)(C(C)C)C(C)C)C(C)C
0.467
COCCOC(=O)N1C(=O)[C@@]2(c3cc(C#CCC(C(=O)OC)C(=O)OC)ccc31)[C@H](c1ccccc1OCCO)N1[C@H](c3ccccc3)[C@H](c3ccccc3)OC(=O)[C@H]1[C@@H]2C(=O)NC[C@H](O)c1ccccc1
1.42

[ask] Param readout = composite z-score; param system = XIP peptide (Xip251-270) binding; param query = `COC(=O)[C@@]1(Cc2ccc(OC)cc2)[C@H]2c3cc(C(=O)N(C)C)n(Cc4ccc(S(C)(=O)=O)cc4)c3C[C@H]2CN1C(=O)c1ccccc1` ; response: value
[reply] 1.64

[ask] Query composite z-score on XIP peptide (Xip251-270) binding for `CC(C)NC(=O)[C@@H]1c2ccccc2C(=O)N(C2Cc3ccccc3C2)[C@H]1c1ccc(CO)cc1`
[reply] 0.536

[ask] Lookup: composite z-score / XIP peptide (Xip251-270) binding / `COCCOC(=O)N1C(=O)[C@@]2(c3ccccc31)[C@H](c1ccccc1OCCO)N1[C@H](c3ccccc3)[C@H](c3ccccc3)OC(=O)[C@H]1[C@@H]2C(=O)N1CCN(c2ncccn2)CC1`
[reply] 1.04

[ask] Reported composite z-score for XIP peptide (Xip251-270) binding, given O=C1C2C=CC(C(O)c3cccc4ccccc34)N(Nc3ccccc3F)C2C(=O)N1c1ccccc1 (stereo unspecified) ?
[reply] 1.09

---

Here the recorded composite z-score is given for each entry.
# Tested on: Lefty1
# Protocol details: Lefty1 binders on small-molecule microarrays, primary screen, biochemical, small-molecule microarray, 635/667 nm fluorescence (AID 1139)
# Test context: small-molecule microarray binding, fluorescence 635/667; higher = more signal
Response field accepts a number only; no unit should be typed.

CCCCCN1CC=CC23O[C@@H]4/C=C\CCC(C)OC(=O)C4[C@H]2C(=O)N(C(C)CO)[C@@H]3C1=O (stereo partly drawn)
0.696
C=CCC(OC(C)=O)[C@@H]1[C@@H](N(Cc2ccc(-c3ccccc3)cc2)C(=O)Cc2ccc(OC)cc2)c2cc(OCCCO)ccc2N1C(=O)Cc1ccc2ccccc2c1 (stereo partly drawn)
0.168
CNS(=O)(=O)c1ccc(C)cc1
0.39
COC(=O)[C@@]1(Cc2ccc(OC)cc2)[C@H]2c3cc(C(=O)N(C)C)n(Cc4ccccn4)c3C[C@H]2CN1C(=O)c1ccccc1
-0.805
CCC(CC)C(O)C1C=CC2C(=O)NC(=O)C2N1Nc1ccc(Cl)cc1Cl (stereo not drawn)
0.359

[ask] What does the record list as composite z-score for `CCCC[C@@H]1C[C@H]1[C@@H](NC(=O)c1ccco1)c1ccccc1C(F)(F)F` ?
[reply] -0.302

[ask] composite z-score for `CCCC[C@@H]1C[C@H]1[C@@H](NC(=O)c1cccs1)c1ccc(-c2ccccc2)cc1` ?
[reply] 0.361

[ask] Returns the measured composite z-score for the input compound. Input: `COc1cc2c(cc1OC)CN(C(=O)[C@H]1[C@@H]3C(=O)O[C@@H](c4ccccc4)[C@@H](c4ccccc4)N3[C@@H](c3ccc(O)cc3)[C@]13C(=O)Nc1ccc(C#CCCO)cc13)CC2`
[reply] 0.0938

---

# Target system: Concanavalin-A (Canavalia ensiformis) (UniProt P02866)
# Sequence (P02866 whole entry, looked up): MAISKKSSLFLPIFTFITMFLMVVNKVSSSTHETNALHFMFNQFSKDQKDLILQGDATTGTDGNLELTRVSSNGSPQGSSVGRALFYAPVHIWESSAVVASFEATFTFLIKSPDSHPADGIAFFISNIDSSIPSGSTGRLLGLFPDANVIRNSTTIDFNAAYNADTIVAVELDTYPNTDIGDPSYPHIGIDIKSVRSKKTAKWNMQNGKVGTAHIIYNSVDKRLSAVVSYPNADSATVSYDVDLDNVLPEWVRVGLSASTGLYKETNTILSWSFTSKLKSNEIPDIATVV
# Protocol details: ConA small-molecule binders, primary screen, artefact control for SMM control protein annotation, biochemical, small-molecule microarray, Alexa647 label, 635 nm (AID 1127);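 note: z combines 667 nm emission intensity with signal-to-noise across three replicate slides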
# Test context: ConA-A647 binding fluorescence, higher = more signal
If the reported composite z-score equals or exceeds 0.08, assign YES. If not, assign NO.

[ask] Test whether the molecule `[N-]=[N+]=Nc1ccccc1[C@@H]1OC(c2ccc(OCCCO)cc2)=N[C@]1(CCS(=O)(=O)c1ccccc1)C(N)=O` records composite z-score of 0.08 or higher.
[reply] YES

[ask] Record `COCC(=C=CC[C@@H](O)c1cccc(OCCO)c1)C[C@@H](O)c1ccccn1` ; criterion: composite z-score no lower than 0.08. Met?
[reply] YES

[ask] In plain terms: is recorded composite z-score at least 0.08 for COc1cc2c(cc1O)C(C1CC1)N(Cc1sc3ccccc3c1Cl)CC2 (stereo not drawn) ?
[reply] NO

[ask] Determine whether this molecule has composite z-score no lower than 0.08: `CCC[C@@H]1C[C@@]1(CCC)[C@@H](NC(=O)c1ccccc1)c1cccc(Cl)c1`
[reply] YES

[ask] Is the recorded value of composite z-score equal to or greater than 0.08 for this molecule? `O=C1C[C@]2(c3ccc([N+](=O)[O-])cc3)C(=O)N(CC(F)(F)F)c3cc(CO)ccc3[C@H]2N1C1CCCCC1`
[reply] NO

[ask] Hi, just wondering whether `CC(C)OC(=O)C=C1C[C@@H](c2ccccn2)O[C@@H](c2ccccn2)O1` shows composite z-score of 0.08 or higher.
[reply] NO

[ask] Textbook exercise: given the entry `COc1ccccc1CN1C(=O)c2ccccc2[C@@H](C(=O)NC2CC2)[C@@H]1c1ccc(CO)cc1` , state whether its composite z-score is greater than or equal to 0.08.
[reply] YES

---

# Protocol details: small-molecule binders of probe aLefty1, primary screen, biochemical, small-molecule microarray, 635/667 nm fluorescence (AID 1153);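 note: score merges spot fluorescence with signal-to-noise ratio from the scanned slide images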
# Test context: higher = more signal
Mark N for composite z-score values under 0.2, and Y for everything at or above.

Take a look at these entries with their results.
COc1ccc(C#Cc2ccc3c(c2)[C@]2(C(=O)N3)[C@H](C(=O)Nc3nc4ccccc4s3)[C@H]3C(=O)O[C@H](c4ccccc4)[C@H](c4ccccc4)N3[C@@H]2c2ccc(O)cc2)cc1
Y
O=C(N1CCCCC1)[C@]1(Cc2ccccc2)N=C(c2ccc(OCCCO)cc2)O[C@@H]1c1ccccc1
Y
C[N+](C)(C)CCCCNC(=O)[C@@H]1C[C@@H]2C(=O)N[C@@H](Cc3ccccc3)C(=O)N2[C@@H]1c1cccc(OCCO)c1
N
COCCCNC(=O)[C@@H]1c2ccccc2C(=O)N(Cc2ccccc2Cl)[C@H]1c1ccc(CO)cc1
N
[N-]=[N+]=NCc1ccccc1[C@@H]1OC(c2ccc(OCCCO)cc2)=N[C@]1(Cc1ccccc1)C(N)=O
N
CCC[C@@H]1C[C@@]1(CCC)[C@@H](NC(=O)c1ccccc1)c1cccc(Cl)c1
Y

[ask] Is composite z-score at least 0.2? Consider `COC(=O)[C@@]1(Cc2ccc(OC)cc2)[C@H]2c3cc(C(=O)N(C)C)n(CCc4ccccn4)c3C[C@H]2CN1C(=O)c1ccccc1`
[reply] Y

[ask] Reported composite z-score at or above 0.2? `CC(C)(C)OC(=O)CC[C@]1(C(=O)N2CCOCC2)N=C(c2ccc(OCCCO)cc2)O[C@H]1c1ccccc1N=[N+]=[N-]`
[reply] N

[ask] Decide: composite z-score of `CCOC(=O)C1=C[C@@H](C(C)(C)C)N(S(=O)(=O)c2ccc(C)cc2)[C@H]1c1ccc(F)cc1` >= 0.2?
[reply] N

[ask] Entry O=C1C2C=CC(C(O)c3cccc4ccccc34)N(Nc3ccccc3F)C2C(=O)N1c1ccccc1 (configuration not stated) : is its composite z-score no less than 0.2?
[reply] Y

[ask] API: above_or_equal(metric=composite z-score, cutoff=0.2) for item `C=C(CCCC)/C(=C/C[C@@H](OC(=O)c1ccncc1)c1ccc(OCCO)cc1)c1cc(C(=O)OC)ccc1OC`
[reply] N

[ask] Reported composite z-score at or above 0.2? `CCCCCCc1nc(-c2cc(C)c(OC)c(C)c2)cc2c1[Si](C(C)C)(C(C)C)OC2`
[reply] N

---

Recorded z-score values for a group of compounds are listed next.
# Protocol details: mitochondrial membrane potential change in A549 cells, profiling panel, cell-based, JC-1 fluorescence, basal, 24 h, 100 nL (AID 1138);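 note: A549 lung adenocarcinoma cells under basal conditions with no added stimulus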
# Test context: higher = more signal
The response must contain the number and no unit.

Sample answers from the record:
CN(C)CCCC[C@@H]1NC(=O)[C@H]2C[C@@H](C(=O)NCCCCCCN)[C@@H](c3ccc(O)cc3)N2C1=O
0.462
C=CCOC(=O)[C@H]1[C@@H]2C(=O)O[C@@H](c3ccccc3)[C@@H](c3ccccc3)N2[C@@H](c2ccc(OCCOC(=O)[C@H]3C[C@H]4C(=O)N[C@@H](CCCC[N+](C)(C)C)C(=O)N4[C@H]3c3ccc(O)cc3)cc2)[C@]12C(=O)Nc1ccc(I)cc12
0.694
[N-]=[N+]=Nc1ccccc1[C@@H]1OC(c2ccc(OCCCO)cc2)=N[C@]1(Cc1ccccc1)C(=O)N1CCOCC1
1.53
COc1ccc(CCNC(=O)[C@@H]2c3ccccc3C(=O)N(Cc3ccccc3Cl)[C@H]2c2ccc(CO)cc2)cc1
2.4
Cc1nc2cc(Br)ccc2c(=O)o1
0.0359
COCCOC(=O)N1C(=O)[C@@]2(c3cc(C#CCC(C(=O)OC)C(=O)OC)ccc31)[C@H](c1ccccc1OCCO)N1[C@H](c3ccccc3)[C@H](c3ccccc3)OC(=O)[C@H]1[C@@H]2C(=O)N1CCN(c2ncccn2)CC1
-0.895
C=CCOC(=O)[C@H]1[C@@H]2C(=O)O[C@@H](c3ccccc3)[C@@H](c3ccccc3)N2[C@@H](c2ccc(OCCOC(=O)[C@H]3C[C@H]4C(=O)N[C@@H](CCCCNC(C)=O)C(=O)N4[C@H]3c3ccc(O)cc3)cc2)[C@]12C(=O)Nc1ccc(I)cc12
-0.804
CCC(CC)C(O)C1C=CC2C(=O)NC(=O)C2N1Nc1ccccn1 (stereo not drawn)
0.693
Cc1ccc(S[C@]2(C(=O)NC3CC3)CC(=O)N(Cc3ccccc3)[C@@H]2c2ccc(CO)cc2I)cc1
2.49
C[C@H]1NC(=O)[C@@]23C(=O)N[C@@H](Cc4ccccc4)C2[C@H](C)[C@@]2(C)O[C@H]2C3/C=C/C/C=C\CNC(=O)[C@@H]2CCCN2C1=O (stereo partly drawn)
0.419

[ask] So what does the record say about z-score for `COCCOC(=O)N1C(=O)[C@@]2(c3ccccc31)[C@H](C(=O)N1CCc3cc(OC)c(OC)cc3C1)[C@H]1C(=O)O[C@H](c3ccccc3)[C@H](c3ccccc3)N1[C@@H]2c1ccc(OCCO)cc1` ?
[reply] -0.382

[ask] What measured z-score goes with `NCCCCCNC(=O)[C@@H]1C[C@@H]2C(=O)N[C@@H](Cc3ccccc3)C(=O)N2[C@@H]1c1ccc(O)cc1` ?
[reply] 0.972

[ask] Look up z-score: O=C1OCCC/C=C\[C@H]2OC34C=CCN(Cc5ccccc5)C(=O)[C@H]3N(CCCO)C(=O)[C@@H]4C12 (stereo partly drawn)
[reply] 1.26
